Known EC50 of a selection of binders
Molecular target: human VWF (human)
Sequence (P04275 whole entry): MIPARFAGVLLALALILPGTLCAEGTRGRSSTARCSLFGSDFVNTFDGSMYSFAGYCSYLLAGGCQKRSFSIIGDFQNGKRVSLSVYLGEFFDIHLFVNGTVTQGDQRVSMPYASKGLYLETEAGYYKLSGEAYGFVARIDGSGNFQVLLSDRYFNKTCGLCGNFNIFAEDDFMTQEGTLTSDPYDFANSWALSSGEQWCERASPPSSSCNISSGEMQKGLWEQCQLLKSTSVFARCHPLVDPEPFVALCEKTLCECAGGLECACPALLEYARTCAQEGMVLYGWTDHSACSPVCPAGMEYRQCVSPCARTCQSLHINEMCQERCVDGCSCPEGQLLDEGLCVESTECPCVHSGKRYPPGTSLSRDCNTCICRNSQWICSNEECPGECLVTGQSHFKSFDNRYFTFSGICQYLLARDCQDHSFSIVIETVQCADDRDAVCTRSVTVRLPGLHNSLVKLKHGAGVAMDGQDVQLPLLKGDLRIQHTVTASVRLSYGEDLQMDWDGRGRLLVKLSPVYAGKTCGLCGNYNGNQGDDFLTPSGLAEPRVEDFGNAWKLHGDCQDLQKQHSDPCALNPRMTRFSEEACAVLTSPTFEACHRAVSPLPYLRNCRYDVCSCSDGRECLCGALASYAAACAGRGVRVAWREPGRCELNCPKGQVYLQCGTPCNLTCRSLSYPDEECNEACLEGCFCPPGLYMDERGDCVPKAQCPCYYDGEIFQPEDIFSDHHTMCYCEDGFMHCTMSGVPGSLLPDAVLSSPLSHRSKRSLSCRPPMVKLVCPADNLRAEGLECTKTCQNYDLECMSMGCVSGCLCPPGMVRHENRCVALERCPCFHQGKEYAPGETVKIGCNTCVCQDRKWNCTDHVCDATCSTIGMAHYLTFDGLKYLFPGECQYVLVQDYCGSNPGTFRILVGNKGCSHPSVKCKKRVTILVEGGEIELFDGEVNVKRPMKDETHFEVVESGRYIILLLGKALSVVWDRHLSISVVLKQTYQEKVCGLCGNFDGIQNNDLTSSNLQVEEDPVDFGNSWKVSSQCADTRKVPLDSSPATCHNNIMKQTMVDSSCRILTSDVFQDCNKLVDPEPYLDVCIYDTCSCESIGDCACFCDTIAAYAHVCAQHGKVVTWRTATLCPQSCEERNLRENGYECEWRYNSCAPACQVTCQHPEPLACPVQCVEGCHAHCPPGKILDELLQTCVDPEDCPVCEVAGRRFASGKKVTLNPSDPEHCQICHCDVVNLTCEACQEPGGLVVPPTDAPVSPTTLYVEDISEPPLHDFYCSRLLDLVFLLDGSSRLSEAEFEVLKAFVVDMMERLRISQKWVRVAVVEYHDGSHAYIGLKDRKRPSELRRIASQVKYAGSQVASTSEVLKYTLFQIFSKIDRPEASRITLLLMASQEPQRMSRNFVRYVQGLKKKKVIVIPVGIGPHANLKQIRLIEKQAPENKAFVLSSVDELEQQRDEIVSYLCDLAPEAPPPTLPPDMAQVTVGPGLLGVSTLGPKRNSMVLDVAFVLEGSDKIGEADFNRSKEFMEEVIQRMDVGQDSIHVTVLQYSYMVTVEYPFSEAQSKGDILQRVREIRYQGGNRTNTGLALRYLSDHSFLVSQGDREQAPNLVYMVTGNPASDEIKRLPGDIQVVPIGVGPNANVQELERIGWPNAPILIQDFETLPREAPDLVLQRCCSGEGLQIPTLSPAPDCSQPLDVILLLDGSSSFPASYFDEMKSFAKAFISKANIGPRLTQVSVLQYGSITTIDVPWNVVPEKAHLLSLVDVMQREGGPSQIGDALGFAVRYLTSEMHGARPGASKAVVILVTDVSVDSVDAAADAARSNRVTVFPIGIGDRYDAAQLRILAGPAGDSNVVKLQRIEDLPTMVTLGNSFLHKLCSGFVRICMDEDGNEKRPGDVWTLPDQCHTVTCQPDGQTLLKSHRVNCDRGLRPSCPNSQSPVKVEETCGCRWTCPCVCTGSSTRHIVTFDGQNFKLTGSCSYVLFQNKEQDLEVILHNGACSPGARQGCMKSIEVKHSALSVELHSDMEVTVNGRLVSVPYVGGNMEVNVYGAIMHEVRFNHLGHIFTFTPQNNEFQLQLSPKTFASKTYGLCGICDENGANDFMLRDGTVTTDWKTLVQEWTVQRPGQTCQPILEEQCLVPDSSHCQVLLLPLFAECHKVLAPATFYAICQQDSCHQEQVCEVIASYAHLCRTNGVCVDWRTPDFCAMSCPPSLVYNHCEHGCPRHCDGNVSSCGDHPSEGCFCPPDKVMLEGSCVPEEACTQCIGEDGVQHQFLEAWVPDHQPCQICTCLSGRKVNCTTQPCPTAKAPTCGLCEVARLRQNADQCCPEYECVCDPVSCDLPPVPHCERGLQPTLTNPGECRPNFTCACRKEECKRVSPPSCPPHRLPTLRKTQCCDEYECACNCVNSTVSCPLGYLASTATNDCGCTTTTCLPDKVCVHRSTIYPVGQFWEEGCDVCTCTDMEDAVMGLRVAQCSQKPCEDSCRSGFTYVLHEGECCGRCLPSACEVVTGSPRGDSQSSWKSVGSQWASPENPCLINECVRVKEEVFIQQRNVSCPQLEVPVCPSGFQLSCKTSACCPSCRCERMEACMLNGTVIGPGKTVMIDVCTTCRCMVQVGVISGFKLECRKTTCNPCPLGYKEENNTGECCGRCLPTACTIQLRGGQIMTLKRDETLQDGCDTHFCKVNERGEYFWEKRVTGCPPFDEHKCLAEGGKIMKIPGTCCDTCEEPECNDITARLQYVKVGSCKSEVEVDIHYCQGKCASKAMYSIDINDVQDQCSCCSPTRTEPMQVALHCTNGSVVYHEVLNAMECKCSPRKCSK
Experiment: ELISA
# value in µg/mL; strip the unit string

33D03_H3-L1 (antibody, V domains shown) VH: QVQLVQSGAEVKKPGASVKVSCKASGYTFTDYYLNWVRQAPGQRLEWMGIINPYNGGTNYSQKFQGRVTITVDKSSSTAYMELSSLRSEDTAVYYCASEGLRTWFTYWGQGTLVTVSS VL: DIVMTQSPDSLAVSLGERATINCKSSQSLSNSGNQKIYLAWYQQKPGQPPKLLIYGASSRESGVPDRFSGSGSGTDFTLTISSLQAEDVAVYYCQNDHSHPFTFGQGTKLEIK | 0.0447
33D03_H5-L3 (antibody, V domains shown) VH: EVQLVQSGAEVKKPGASVKVSCKASGYTFTDYYLNWVRQAPGQRLEWMGIINPYNGGTNYNQRFKGRVTLTVDKSSSTAYMELSSLRSEDTAVYYCASEGLRTWFTYWGQGTLVTVSS VL: DIVMTQSPDSLAVSLGERATINCKSSQSLSNSGNQKIYLAWYQQKPGQPPKLLIYGASSRESGVPDRFSGSGSEIDFTLTISSLQAEDVAVYYCQNDHSHPFTFGQGTKLEIK | 0.0335
25B05_H1-L2 (antibody, V domains shown) VH: QVQLVQSGAEVKKPGASVKVSCKASGYTFTDYFMNWVRQAPGQRLEWMGVINPHNGGTSYSQKFQGRVTITRDTSASTAYMELSSLRSEDTAVYYCARRPLGSDYWGQGTTVTVSS VL: DIVMTQSPSSVSASVGDRVTITCKASQNVGTAVAWYQQKPGKAPKLLIYSASSRYTGVPSRFSGSGSGTDFTLTISSLQPEDFATYYCQQYSSYPLTFGQGTKLEIK | 0.0334

Next:
Which EC50 is listed for 25B05_H3-L1 (antibody, V domains shown) VH: EVQLVQSGAEVKKPGASVKVSCKASGYTFTDYFMNWVRQAPGQRLEWMGVINPHNGGTSYSQKFQGRVTITVDKSSSTAYMELSSLRSEDTAVYYCARRPLGSDYWGQGTTVTVSS VL: DIQMTQSPSSVSASVGDRVTITCKASQNVGTAVAWYQQKPGKAPKLLIYSASSRYTGVPSRFSGSGSGTDFTLTISSLQPEDFATYYCQQYSSYPLTFGQGTKLEIK ?
0.0594

Attribution: patent US20260317443
